# Tested on: SN12C renal
# method-notes: NCI-60 one-dose screen, 48 h (100 = growth as untreated, 0 = no growth, -100 = all killed)
# test-parameters: 10 µM unless noted
The panel holds about 83,000 compounds, 20% with a hit somewhere; the sample as a whole holds those more often.
assay-endpoint: growth (%)
Answers are plain numbers, in %.

Example cases with answers are listed next.
Result for CC1(C)CC[C@]2(C(=O)O)CC[C@]3(C)C(=CCC4[C@@]5(C)C[C@@H](O)[C@@H]6OC(c7ccccc7F)OC[C@@]6(C)C5CC[C@]43C)C2C1 (stereo partly drawn) , tested on SN12C renal, growth: 3.09

Result for COc1ccc(-c2ccc(SCC(=O)Nc3ccc(S(N)(=O)=O)cc3Br)nn2)cc1 , tested on SN12C renal, growth: 88.4

Result for COc1cc(NC(=O)c2cccc(C3CCc4c(cc(OC)c(OC)c4OC)O3)c2)cc(OC)c1OC (stereo not drawn) , tested on SN12C renal, growth: 13.2

State recorded growth for all listed compounds.
1. COc1ccc(C(=O)Nc2n[nH]c(Nc3ccccc3)c2C#N)cc1
2. COCOc1ccc2c(=O)c(C)c(C(=O)N[C@@H](Cc3ccccc3)C(O)C(=O)NCCc3ccc(OC)cc3)oc2c1 (stereo partly drawn)

110
95.2

State recorded growth for all listed compounds.
1. O=C(/C=C/c1ccc(-c2ccccc2)cc1)c1nc2ccccc2n1Cc1ccc(Br)cc1
2. Cn1cc(NC(=O)c2cc(NC(=O)c3ccc(/C=C/c4ccccc4)cc3)cn2C)cc1C(=O)NCCCN1CCOCC1
3. Cn1cc(-c2nc(N)nnc2-c2c[nH]c3ccc(Br)cc23)c2cc(Br)cnc21

[77.2, 43.4, 11.3]

* * *

# Test system: HCT-15 colon
# method-notes: NCI-60 one-dose screen, 48 h (100 = growth as untreated, 0 = no growth, -100 = all killed)
# test-parameters: 10 µM unless noted
This is part of a sample that, as a whole, favours compounds with a hit. Of some 83,000 tested, about 20% had one in any assay.
assay-endpoint: growth (%)
One number for each entry, in %.

molecule C#CCOc1cc(N(CC)CC)ccc1C(C(=O)NC(C)(C)C)N(C(=O)C1CCc2cc(F)ccc2O1)c1ccc(F)c(Cl)c1 (configuration not stated) , growth observed: 51.1

molecule O=C(N1c2ccccc2Sc2ccccc21)n1ccc2cccnc21 , growth observed: 40.2

molecule CC1(C)CC[C@]2(C(=O)O)CC[C@]3(C)C(=CCC4[C@@]5(C)C[C@@H](O)[C@@H]6OC(c7ccccc7F)OC[C@@]6(C)C5CC[C@]43C)C2C1 (some centres not stated) , growth observed: 5.25

molecule COCOc1cc2c(=O)c(C)c(C(=O)N[C@@H](Cc3ccccc3)C(O)C(=O)NCc3ccccc3)oc2cc1OC (some centres not stated) , growth observed: 84.3

molecule COc1cc2oc(-c3cccc(NC(=O)[C@H](CC(N)=O)NC(=O)OC(C)(C)C)c3)cc(=O)c2c(OC)c1OC , growth observed: 99.8

molecule Cc1cc2nc3c([nH]c2cc1C)c1ccc(=O)cc1n3CCN(C)C , growth observed: 19.3

State recorded growth for all listed molecules.
1. O=C(c1ccc(OCCN2CCOCC2)cc1)C1[C@H](c2ccc(Cl)cc2)[C@@H](c2ccccc2)NC12C(=O)Nc1ccc(Br)cc12 (some centres not stated)
2. O=C(O)c1ccc(-c2ccc(/C=N/NC(=O)c3[nH]c4ccc(Br)cc4c3-c3ccccc3)s2)cc1
3. COc1ccc(CCC2c3c(cc4c(c3OC)OCO4)CCN2C)cc1 (configuration not stated)

[8.44, -34.6, -16.4]

State recorded growth for all listed molecules.
1. CCCCSc1nc(NCCc2c[nH]c3ccccc23)c(C#N)c(-c2ccccc2)n1
2. CC1[C@H]2[C@H](C[C@H]3[C@@H]4CC=C5c6sc(Nc7ccccc7F)nc6CC[C@]5(C)[C@H]4CC[C@@]32C)O[C@]12CC[C@@H](C)CO2 (some centres not stated)
3. Cn1cc(-c2cc3nc(-c4cn(C)c5ncc(Br)cc45)cc(N)n3n2)c2ccccc21
4. COCOc1cc2oc(C(=O)N[C@@H](Cc3ccccc3)C(O)C(=O)NCc3ccccc3)c(C)c(=O)c2cc1OCOC (some centres not stated)
5. CN(C)c1nc(NCCNS(=O)(=O)c2ccc(C3=Nc4c(N)nc(N)nc4NC(c4ccc(Cl)cc4)C3)cc2)nc(Nc2ccc(F)cc2)n1 (configuration not stated)
6. Cc1ccc(C(=O)C(c2c[nH]c3ccccc23)c2c[nH]c3ccccc23)cc1
7. Cn1cc(-c2nc(N)nnc2-c2c[nH]c3ccc(F)cc23)c2cc(Br)cnc21

[16.8, -80, -23.3, 94.4, 32, -15.3, 3.56]

molecule c1ccc(-c2csc(Nc3cccc(Nc4nc(-c5ccccc5)cs4)c3)n2)cc1 , growth observed: 30.5

src = PubChem BioAssay (NCI)
